Taken from patent US8883812B2.

Test: in vivo
Conditions: male, Wistar Han IGS (CRL:WI [Han]), rat, po
EXPERIMENTAL_READOUT: Cmax (nM)
Expressed in nM, but write only the number.

Cmax reported for this compound `COc1nc(N2CCC(OC)CC2)nc(OC)c1NC(=O)CC(C)(C)C` : 54

* * *

Assay: Compound concentrations (exposure) in rat DRF safety study
Conditions: read-out: Rat DRF Cmax, Threshold for SAE, oral gavage, at SAE threshold dose
EXPERIMENTAL_READOUT: Cmax (nM)
Quick reminder: number only, in nM, skip the unit.

[
  {
    "COMPOUND": "COc1nc(N2CCC(OC)CC2)nc(OC)c1NC(=O)CC(C)(C)C",
    "ENDPOINT_UNIT": "nM",
    "Cmax": 866
  }
]

# evaluate next
In plain terms, CCOC(=O)Nc1ccc(NCc2ccc(F)cc2)cc1N [Retigabine, reference compound] has a documented Cmax of 2390

* * *

Experiment: Compound concentrations (exposure) in rat DRF safety study
Settings: read-out: Rat DRF Cmax, NOEL, oral gavage, at NOEL dose
EXPERIMENTAL_READOUT: Cmax (µM)
Please state the figure in µM; there is no need to write the unit.

Measured Cmax, CCOC(=O)Nc1ccc(NCc2ccc(F)cc2)cc1N [Retigabine, reference compound] : 0.87

* * *

Cmax values by entry
Assay: Compound concentrations (exposure) in rat DRF safety study
Details: read-out: Rat DRF Cmax, Threshold for MCS, oral gavage, at MCS threshold dose

[
  {
    "COMPOUND": "COc1nc(N2CCC(OC)CC2)nc(OC)c1NC(=O)CC(C)(C)C [Example 1]",
    "Cmax": "99 nM"
  }
]

// CCOC(=O)Nc1ccc(NCc2ccc(F)cc2)cc1N [Retigabine, reference compound] : Cmax value = 870 to 2390 nM
